test system: RXRa homodimer (NR concentration 180 nM); test: PBM binding z-score (relative to random genomic background probes); higher = stronger binding; sequences stand for … in GC…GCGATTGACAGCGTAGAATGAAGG

{"input sequence": "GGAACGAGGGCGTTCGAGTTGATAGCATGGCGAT", "PBM binding z-score": -0.0265}
{"input sequence": "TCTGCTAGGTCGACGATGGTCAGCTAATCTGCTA", "PBM binding z-score": 0.321}
{"input sequence": "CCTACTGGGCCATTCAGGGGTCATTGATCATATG", "PBM binding z-score": 5.5}
{"input sequence": "ATCTTTAGGTAAAGTTCAGTGAAAGATCGATAGA", "PBM binding z-score": 1.15}
{"input sequence": "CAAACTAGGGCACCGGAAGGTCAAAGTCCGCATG", "PBM binding z-score": 3.84}
{"input sequence": "ACTTATGGGTCAACGAGGTTATAGCACGCGTATA", "PBM binding z-score": 5.18}
{"input sequence": "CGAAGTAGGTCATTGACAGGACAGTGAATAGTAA", "PBM binding z-score": 2.94}
{"input sequence": "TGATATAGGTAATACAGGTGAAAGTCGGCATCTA", "PBM binding z-score": 1.12}
{"input sequence": "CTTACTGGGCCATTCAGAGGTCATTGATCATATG", "PBM binding z-score": 4.04}
{"input sequence": "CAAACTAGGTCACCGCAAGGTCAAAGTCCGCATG", "PBM binding z-score": 6.15}
{"input sequence": "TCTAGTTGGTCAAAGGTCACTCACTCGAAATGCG", "PBM binding z-score": 7.54}
{"input sequence": "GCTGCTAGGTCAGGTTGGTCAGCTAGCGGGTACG", "PBM binding z-score": 0.963}
{"input sequence": "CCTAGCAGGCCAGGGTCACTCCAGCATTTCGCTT", "PBM binding z-score": 2.86}
{"input sequence": "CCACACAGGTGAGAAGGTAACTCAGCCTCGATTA", "PBM binding z-score": 0.675}
{"input sequence": "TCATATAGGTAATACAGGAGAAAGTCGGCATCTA", "PBM binding z-score": 0.686}
{"input sequence": "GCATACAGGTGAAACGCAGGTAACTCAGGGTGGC", "PBM binding z-score": 0.854}
{"input sequence": "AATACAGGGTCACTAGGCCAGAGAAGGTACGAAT", "PBM binding z-score": 5.52}
{"input sequence": "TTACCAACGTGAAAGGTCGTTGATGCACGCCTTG", "PBM binding z-score": 2.73}
{"input sequence": "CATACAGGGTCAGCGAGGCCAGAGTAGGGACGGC", "PBM binding z-score": 4.45}
{"input sequence": "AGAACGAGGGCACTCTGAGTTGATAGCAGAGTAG", "PBM binding z-score": 0.823}
{"input sequence": "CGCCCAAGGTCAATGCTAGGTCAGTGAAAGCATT", "PBM binding z-score": 5.06}
{"input sequence": "ATCGAAAGGTCGAGGTCAGTATAGAGAAAGGGAA", "PBM binding z-score": 5.46}
{"input sequence": "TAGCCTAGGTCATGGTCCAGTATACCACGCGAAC", "PBM binding z-score": 3.51}
{"input sequence": "CGAACTAGGTCAGAACAGGACAGTGTAGGATGAT", "PBM binding z-score": 1.28}
{"input sequence": "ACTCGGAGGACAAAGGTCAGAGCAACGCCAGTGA", "PBM binding z-score": 5.09}
{"input sequence": "TCATATAAGTAAAAGGTGAAAGTCGGTGTGGTAA", "PBM binding z-score": 2.11}
{"input sequence": "TCATATAGGTAAACAGGTGAAGGTCCGTAAGTTA", "PBM binding z-score": 0.85}
{"input sequence": "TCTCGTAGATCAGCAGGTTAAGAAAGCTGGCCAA", "PBM binding z-score": 0.405}
{"input sequence": "TCATATAGGTAAAAGGTGGAAGTCGGTGTGGTAA", "PBM binding z-score": 1.54}
{"input sequence": "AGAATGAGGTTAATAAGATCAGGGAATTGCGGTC", "PBM binding z-score": 1.82}
{"input sequence": "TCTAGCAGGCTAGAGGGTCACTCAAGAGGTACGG", "PBM binding z-score": 2.42}
{"input sequence": "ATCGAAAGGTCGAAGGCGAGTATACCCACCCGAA", "PBM binding z-score": 3.64}
{"input sequence": "ATATGTAGGTTACATCCGGGTCATTCATGCTATG", "PBM binding z-score": 2.93}
{"input sequence": "CCTTAAGGGTCACTGACAGGTTATAGCATTTGGA", "PBM binding z-score": 6.82}
{"input sequence": "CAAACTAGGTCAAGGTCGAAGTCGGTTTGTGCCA", "PBM binding z-score": 3.49}
{"input sequence": "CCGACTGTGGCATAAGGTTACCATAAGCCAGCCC", "PBM binding z-score": 0.923}
{"input sequence": "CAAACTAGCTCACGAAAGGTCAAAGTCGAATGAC", "PBM binding z-score": 6.26}
{"input sequence": "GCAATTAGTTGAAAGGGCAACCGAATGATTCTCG", "PBM binding z-score": 1.25}
{"input sequence": "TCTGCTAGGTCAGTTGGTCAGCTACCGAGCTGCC", "PBM binding z-score": 0.83}
{"input sequence": "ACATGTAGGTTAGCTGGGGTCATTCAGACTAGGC", "PBM binding z-score": 5.59}
{"input sequence": "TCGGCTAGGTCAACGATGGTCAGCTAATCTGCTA", "PBM binding z-score": 2.56}
{"input sequence": "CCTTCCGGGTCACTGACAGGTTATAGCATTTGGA", "PBM binding z-score": 4.67}
{"input sequence": "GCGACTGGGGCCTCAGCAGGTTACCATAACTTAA", "PBM binding z-score": -0.182}
{"input sequence": "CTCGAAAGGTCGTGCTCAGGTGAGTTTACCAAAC", "PBM binding z-score": 5.17}
{"input sequence": "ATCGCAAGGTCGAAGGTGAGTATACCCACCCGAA", "PBM binding z-score": 2.93}
{"input sequence": "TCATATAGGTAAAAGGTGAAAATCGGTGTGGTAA", "PBM binding z-score": 3.08}
{"input sequence": "CCTATTAGTTGACCATAAGGGCACCCGAAGCTCG", "PBM binding z-score": 0.908}
{"input sequence": "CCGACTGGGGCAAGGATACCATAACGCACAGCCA", "PBM binding z-score": 0.232}
{"input sequence": "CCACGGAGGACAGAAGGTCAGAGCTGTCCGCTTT", "PBM binding z-score": 2.22}
{"input sequence": "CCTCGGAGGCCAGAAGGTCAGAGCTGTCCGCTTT", "PBM binding z-score": 2.05}
{"input sequence": "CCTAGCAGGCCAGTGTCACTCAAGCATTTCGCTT", "PBM binding z-score": -0.38}
